B1: SLC6A17 (parent)
chain: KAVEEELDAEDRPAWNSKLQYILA

variants of: B1; assay: protein stability index of a GFP-peptide fusion (GPS, HEK-293T) (PSI 1-6); higher = more stable; conditions: c terminus: a fixed tail appended;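 note: lentivirally expressed fusions sorted by FACS into six bins by GFP to DsRed ratio, PSI derived from sequencing read proportions per bin multiplied by bin number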
Decide using protein stability index: a value greater than or equal to 3 is TRUE, a smaller one is FALSE.

Would you please look over these solved cases?
                  primary_sequence  label_class
0   KAVGEELDAEDRPAWNSKLQYILA [E4G]        FALSE
1  KAVEEELDAEDRPAWNSKLGYILA [Q20G]        FALSE

Prompt: Is it the case that KSVEEELDAEDRPAWNSKLQYILA [A2S] has protein stability index reaching or exceeding 3?
Completion: FALSE

Prompt: Now this one: KAVEEELDAEDRPAWNSKLQYILE [A24E]
Completion: FALSE

Prompt: Now this one: KAVEEELDAEDRPAWNSKLQYIMA [L23M]
Completion: FALSE

Prompt: Now this one: KAVEEELDYEDRPAWNSKLQYILA [A9Y]
Completion: FALSE
